Each entry below carries its reported log10 of Ki.
# EXPERIMENTAL TARGET: Human recombinant MMP-9 (Homo sapiens, UniProt P14780)
# Construct: made in house; host or cells: MMP-9-transfected HT1080 cells (spent media)
# Sequence (P14780 107-707 limits assumed): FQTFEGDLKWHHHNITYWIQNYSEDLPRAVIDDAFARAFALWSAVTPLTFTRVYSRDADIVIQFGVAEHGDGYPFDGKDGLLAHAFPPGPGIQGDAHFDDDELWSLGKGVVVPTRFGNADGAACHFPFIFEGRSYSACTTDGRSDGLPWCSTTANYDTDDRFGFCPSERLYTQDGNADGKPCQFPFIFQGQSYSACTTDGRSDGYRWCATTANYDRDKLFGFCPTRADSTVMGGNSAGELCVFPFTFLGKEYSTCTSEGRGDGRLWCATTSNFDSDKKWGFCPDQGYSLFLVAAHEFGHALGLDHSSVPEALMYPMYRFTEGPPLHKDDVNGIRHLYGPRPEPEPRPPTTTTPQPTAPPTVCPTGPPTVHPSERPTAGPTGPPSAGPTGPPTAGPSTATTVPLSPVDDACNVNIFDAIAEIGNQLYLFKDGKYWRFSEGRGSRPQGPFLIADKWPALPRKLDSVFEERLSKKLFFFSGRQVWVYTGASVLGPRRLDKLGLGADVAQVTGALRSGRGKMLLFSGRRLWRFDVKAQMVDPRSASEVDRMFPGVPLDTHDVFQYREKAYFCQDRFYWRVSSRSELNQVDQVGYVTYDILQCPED
# ASSAY METHOD TEXT: In vitro MMP inhibition, Ki determination (fluorogenic substrate II)
# Type: biochemical
# EXPERIMENTAL PARAMETERS: value in parenthesis
Form field - Quantity: Ki; Unit: nM; Scale: log10

Recorded log10 of Ki, per entry:
[
  {
    "COMPOUND": "COCCN1CCC(C(=O)NO)(S(=O)(=O)c2ccc(OCCCc3nc(-c4ccc(Br)cc4C)no3)cc2)CC1",
    "QUANTITATIVE RESULT": 2.66
  },
  {
    "COMPOUND": "COc1ccc(-c2cccc(CCOc3ccc(S(=O)(=O)C4(C(=O)NO)CCOCC4)cc3)c2)cc1C",
    "QUANTITATIVE RESULT": 3.60
  },
  {
    "COMPOUND": "O=C(NO)C1(S(=O)(=O)c2ccc(OCCCc3cccc(Br)c3)cc2)CCOCC1",
    "QUANTITATIVE RESULT": 2.18
  },
  {
    "COMPOUND": "O=C(NO)C1(S(=O)(=O)c2ccc(OCCCc3cccc(-c4ccncc4)c3)cc2)CCOCC1",
    "QUANTITATIVE RESULT": 1.98
  },
  {
    "COMPOUND": "O=C(NO)C1(S(=O)(=O)c2ccc(OCCCc3cccc(-c4cccc(F)c4)c3)cc2)CCOCC1",
    "QUANTITATIVE RESULT": 3.24
  }
]

Q: Need log10 of Ki, item O=C(CCCOc1ccc(S(=O)(=O)C2(C(=O)NO)CCOCC2)cc1)Nc1ccc(OC(F)(F)F)cc1 [Example 250]
Ans: 1.10

Q: Queued: O=C(CCCOc1ccc(S(=O)(=O)C2(C(=O)NO)CCOCC2)cc1)Nc1ccc(OC(F)(F)F)cc1 [Example 228]
Ans: 2.39

Q: Queued: `Cc1cc(-c2cccc(CCCOc3ccc(S(=O)(=O)C4(C(=O)NO)CCOCC4)cc3)c2)ccc1Cl`
Ans: 3.94

Q: Queued: `COCCN1CCC(C(=O)NO)(S(=O)(=O)c2ccc(OCCCc3nc(-c4ccc(CC(C)C)cc4C)no3)cc2)CC1`
Ans: 3.55

Q: Queued: `COCCN1CCC(C(=O)NO)(S(=O)(=O)c2ccc(OCCCc3cccc(-c4ccc(F)cc4)c3)cc2)CC1`
Ans: 2.88

Q: Queued: `O=C(NO)C1(S(=O)(=O)c2ccc(OCCCc3cccc(-c4ccc(F)c(F)c4)c3)cc2)CCOCC1`
Ans: 3.18

Q: Queued: `O=C(NO)C1(S(=O)(=O)c2ccc(OCCCc3cccc(-c4ccccc4Cl)c3)cc2)CCOCC1`
Ans: 3.50

Q: Queued: `O=C(CCCOc1ccc(S(=O)(=O)C2(C(=O)NO)CCOCC2)cc1)Nc1cccc(OC(F)(F)F)c1`
Ans: 1.61

Q: Queued: `Cc1ccc(-c2cccc(CCOc3ccc(S(=O)(=O)C4(C(=O)NO)CCOCC4)cc3)c2)cc1`
Ans: 3.63

Q: Queued: `O=C(NO)C1(S(=O)(=O)c2ccc(OCCc3cccc(-c4ccc(OC(F)(F)F)cc4)c3)cc2)CCOCC1`
Ans: 3.95

Q: Queued: `O=C(NO)C1(S(=O)(=O)c2ccc(OCCCc3cccc(-c4cccnc4)c3)cc2)CCOCC1`
Ans: 2.10

Q: Queued: `O=C(NO)C1(S(=O)(=O)c2ccc(OCCCc3cccc(-c4ccc(OC(F)(F)F)cc4)c3)cc2)CCOCC1`
Ans: 3.90

Q: Queued: `Cc1ccccc1-c1cccc(CCOc2ccc(S(=O)(=O)C3(C(=O)NO)CCOCC3)cc2)c1`
Ans: 3.74

Q: Queued: `O=C(NO)C1(S(=O)(=O)c2ccc(OCCCc3cccc(-c4ccccn4)c3)cc2)CCOCC1`
Ans: 2.63

Q: Queued: `O=C(NO)C1(S(=O)(=O)c2ccc(OCCCc3nc(C4CCCCC4)no3)cc2)CCN(C2CC2)CC1`
Ans: 2.78

Q: Queued: `O=C(NO)C1(S(=O)(=O)c2ccc(OCCCc3cccc(-c4ccccc4F)c3)cc2)CCOCC1`
Ans: 3.40

Q: Queued: `O=C(NO)C1(S(=O)(=O)c2ccc(OCCCc3cccc(-c4ccc(F)cc4)c3)cc2)CCN(C2CC2)CC1`
Ans: 3.14

Q: Queued: `CCc1ccccc1-c1noc(CCCOc2ccc(S(=O)(=O)C3(C(=O)NO)CCN(CCOC)CC3)cc2)n1`
Ans: 2.24

Q: Queued: `COCCN1CCC(C(=O)NO)(S(=O)(=O)c2ccc(OCCCc3nc(-c4cccc5ccccc45)no3)cc2)CC1`
Ans: 1.77

Q: Queued: `O=C(NO)C1(S(=O)(=O)c2ccc(OCCCc3cccc(-c4ccc(Cl)cc4Cl)c3)cc2)CCOCC1`
Ans: 3.82

Q: Queued: `Cc1cc(-c2cccc(CCCOc3ccc(S(=O)(=O)C4(C(=O)NO)CCOCC4)cc3)c2)ccc1F`
Ans: 3.81
